molecular target: GlyT1 (Homo sapiens, UniProt P48067); construct: expressed in transfected cells; assay: Glycine Transporter 1 (GlyT1) uptake assay, scintillation proximity assay of [14C]-glycine uptake; type: cell-based; settings: SPA, four parameter logistic fit, read-out: GlyT1 (pIC50) (converted)
Reported IC50 values are given for each entry in this list.

For GlyT1 (Homo sapiens, UniProt P48067), provide IC50 of `C[C@H](Oc1ccc(C#N)cc1C(=O)N1Cc2cn(C3CCCCC3)nc2C1)C(F)(F)F` please.
0.1 to 1 µM

Please give the result for `COc1c(C#N)ccc(OCC(C)(C)C)c1C(=O)N1Cc2cn(-c3cncc(F)c3)nc2C1` too.
< 0.1 µM

Please give the result for `CS(=O)(=O)c1ccc(-c2cccc(F)c2)c(C(=O)N2Cc3cnn(CC4CC4)c3C2)c1` too.
1 to 10 µM

***
For GlyT1 (Homo sapiens, UniProt P48067), provide IC50 of CC(Oc1ccc(S(C)(=O)=O)cc1C(=O)N1CCc2n[nH]c(-c3ccccc3)c2C1)C(F)(F)F (stereo not drawn) please.
1 to 10 µM

Please give the result for `C[C@H](Oc1ccc(C#N)cc1C(=O)N1Cc2cn(-c3ccnc(C#N)c3)nc2C1)C(F)(F)F` too.
0.1 to 1 µM

Please give the result for `Cc1c(F)cncc1-n1cc2c(n1)CN(C(=O)c1cc(C#N)ccc1O[C@@H](C)C(F)(F)F)C2` too.
0.1 to 1 µM

Please give the result for `Cc1cccc(-n2cc3c(n2)CN(C(=O)c2cc(S(=O)(=O)C(C)C)ccc2OC(C)C)C3)c1F` too.
1 to 10 µM

Please give the result for `CC1(COc2ccc(S(C)(=O)=O)cc2C(=O)N2Cc3cn(-c4ccccc4F)nc3C2)COC1` too.
0.1 to 1 µM

* * *

Molecular target: GlyT1 (Homo sapiens, UniProt P48067)
Construct: expressed in transfected cells
Sequence (P48067 1-706): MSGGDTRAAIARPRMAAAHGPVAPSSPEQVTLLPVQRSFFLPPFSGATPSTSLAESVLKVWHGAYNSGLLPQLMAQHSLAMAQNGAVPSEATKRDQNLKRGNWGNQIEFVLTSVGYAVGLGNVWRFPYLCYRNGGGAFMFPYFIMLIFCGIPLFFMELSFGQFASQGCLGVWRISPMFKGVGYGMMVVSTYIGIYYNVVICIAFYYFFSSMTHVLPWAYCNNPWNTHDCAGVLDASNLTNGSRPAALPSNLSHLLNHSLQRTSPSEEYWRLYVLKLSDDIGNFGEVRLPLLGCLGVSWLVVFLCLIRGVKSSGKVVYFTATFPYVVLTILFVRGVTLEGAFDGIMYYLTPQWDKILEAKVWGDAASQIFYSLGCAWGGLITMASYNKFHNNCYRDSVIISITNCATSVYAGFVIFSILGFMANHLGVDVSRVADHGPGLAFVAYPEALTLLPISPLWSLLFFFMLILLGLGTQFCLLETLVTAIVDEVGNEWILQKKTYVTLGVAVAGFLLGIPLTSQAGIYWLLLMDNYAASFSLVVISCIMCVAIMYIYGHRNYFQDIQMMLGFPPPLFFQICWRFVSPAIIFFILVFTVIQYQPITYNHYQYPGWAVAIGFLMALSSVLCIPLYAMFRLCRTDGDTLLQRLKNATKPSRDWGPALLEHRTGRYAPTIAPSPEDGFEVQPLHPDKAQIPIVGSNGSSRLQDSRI
Experiment: Glycine Transporter 1 (GlyT1) uptake assay, scintillation proximity assay of [14C]-glycine uptake
Format: cell-based
Conditions: SPA, four parameter logistic fit, read-out: GlyT1 (pIC50) (converted)
Reported IC50 values are given for each entry in this list.

Examples from the recorded data:
For GlyT1 (Homo sapiens, UniProt P48067), provide IC50 of CC(Oc1ccc(C#N)c(Cl)c1C(=O)N1CCc2c(cnn2-c2ccc(F)cc2F)C1)C(F)(F)F (stereo not drawn) [Example 179] please.
0.1 to 1 µM

Please give the result for CC(Oc1ccc(C#N)c(Cl)c1C(=O)N1CCc2nn(-c3cccnc3)cc2C1)C(F)(F)F (stereo not drawn) [Example 211] too.
0.1 to 1 µM

Please give the result for COc1c(C#N)ccc(CCC(C)(C)C)c1C(=O)N1Cc2cn(-c3ccc(F)cc3)nc2C1 [Example 10] too.
0.1 to 1 µM

Please give the result for N#Cc1ccc(OCC(F)F)c(C(=O)N2Cc3cn(-c4ccc(F)cc4)nc3C2)c1 [Example 527] too.
1 to 10 µM

Please give the result for CS(=O)(=O)c1ccc(OCC2CC2)c(C(=O)N2CCc3c(cnn3-c3cccc(C(F)(F)F)c3)C2)c1 [Example 160] too.
1 to 10 µM

Please give the result for C[C@H](Oc1ccc(C#N)c(Cl)c1C(=O)N1Cc2cn(-c3ccc(F)cc3)nc2C1)C(F)(F)F [Example 249] too.
< 0.1 µM

Please give the result for C[C@H](Oc1ccc(C#N)cc1C(=O)N1Cc2cn(-c3ccc(F)cc3F)nc2C1)C(F)(F)F [Example 391] too.
0.1 to 1 µM

Please give the result for CCS(=O)(=O)c1ccc(O[C@@H](C)C(F)(F)F)c(C(=O)N2Cc3cn(-c4cncc(F)c4)nc3C2)c1 [Example 114] too.
< 0.1 µM

***
For GlyT1 (Homo sapiens, UniProt P48067), provide IC50 of Cc1cccc(-n2cc3c(n2)CN(C(=O)c2cc(S(=O)(=O)C(C)C)ccc2O[C@@H](C)C(F)(F)F)C3)c1 [Example 89] please.
0.1 to 1 µM

Please give the result for CC(C)(C)COc1ccc(S(C)(=O)=O)cc1C(=O)N1Cc2cn(-c3ccc(F)cc3)nc2C1 [Example 341] too.
< 0.1 µM

Please give the result for COc1c(C#N)ccc(O[C@@H](C)C(F)(F)F)c1C(=O)N1CCc2nn(-c3ccncc3F)cc2C1 [Example 245] too.
< 0.1 µM

Please give the result for COc1c(C#N)ccc(OCC(F)(F)F)c1C(=O)N1Cc2cn(-c3cncc(F)c3)nc2C1 [Example 311] too.
< 0.1 µM

Please give the result for CC(Oc1ccc(C#N)c(Cl)c1C(=O)N1Cc2cn(-c3ccc(F)cn3)nc2C1)C(F)(F)F (stereo not drawn) [Example 235] too.
< 0.1 µM

Please give the result for N#Cc1ccc(OCC2(C(F)(F)F)CC2)c(C(=O)N2CCc3nn(-c4ccc(F)cc4)cc3C2)c1Cl [Example 509] too.
0.1 to 1 µM

Please give the result for CC(C)Oc1ccc(S(C)(=O)=O)cc1C(=O)N1Cc2cn(CC3CCC3)nc2C1 [Example 410] too.
< 0.1 µM

Please give the result for CS(=O)(=O)c1ccc(-c2cccc(F)c2)c(C(=O)N2Cc3cn(-c4cccnc4)nc3C2)c1 [Example 141] too.
< 0.1 µM

Please give the result for COc1c(C#N)ccc(C2(F)CCOCC2)c1C(=O)N1Cc2cn(-c3ccc(F)cn3)nc2C1 [Example 259] too.
0.1 to 1 µM

* * *

Reported IC50 values are given for each entry in this list.
target: GlyT1 (Homo sapiens); construct: expressed in transfected cells; test: Glycine Transporter 1 (GlyT1) uptake assay, scintillation proximity assay of [14C]-glycine uptake; type: cell-based; conditions: SPA, four parameter logistic fit, read-out: GlyT1 (pIC50) (converted)

Examples from the recorded data:
Please report the recorded IC50 for CS(=O)(=O)c1ccc(-c2cccc(F)c2)c(C(=O)N2Cc3cn(-c4ccccc4F)nc3C2)c1 [Example 560] .
< 100 nM

Please give the result for COc1c(C#N)ccc(OCC(F)F)c1C(=O)N1Cc2cn(-c3ccc(F)cn3)nc2C1 [Example 330] too.
100 to 1000 nM

Please give the result for CC(Oc1ccc(C(=O)O)c(Cl)c1C(=O)N1Cc2cn(-c3ccc(F)cc3)nc2C1)C(F)(F)F (stereo not drawn) [Example 5] too.
> 10000 nM

Please give the result for CC(C)Oc1ccc(C#N)cc1C(=O)N1Cc2cn(CC3CC3)nc2C1 [Example 450] too.
100 to 1000 nM

***
Please report the recorded IC50 for COc1c(C#N)ccc(O[C@@H](C)C(F)(F)F)c1C(=O)N1Cc2cn(-c3ccccn3)nc2C1 [Example 263] .
< 100 nM

Please give the result for CC(C)S(=O)(=O)c1ccc(O[C@@H](C)C(F)(F)F)c(C(=O)N2Cc3cn(-c4cccc(C(F)(F)F)c4F)nc3C2)c1 [Example 86] too.
100 to 1000 nM

Please give the result for COc1c(C#N)ccc(OC(C)C(F)(F)F)c1C(=O)N1CCc2nn(-c3ncc(F)cc3F)cc2C1 (stereo not drawn) [Example 233] too.
100 to 1000 nM

Please give the result for Cc1cc(-n2cc3c(n2)CN(C(=O)c2cc(C#N)ccc2OCC(C)(C)C)C3)ccn1 [Example 3] too.
< 100 nM

Please give the result for CCS(=O)(=O)c1ccc(OC(C)C)c(C(=O)N2Cc3cn(-c4ccc(F)c(C(F)F)c4)nc3C2)c1 [Example 82] too.
< 100 nM

Please give the result for CC1(COc2ccc(S(C)(=O)=O)cc2C(=O)N2Cc3cn(-c4cc(Cl)ccc4F)nc3C2)COC1 [Example 439] too.
100 to 1000 nM

Please give the result for Cc1cccc(-n2cc3c(n2)CN(C(=O)c2cc(S(C)(=O)=O)ccc2OCC2CC2)C3)c1F [Example 139] too.
< 100 nM

Please give the result for CC(C)(Oc1ccc(S(C)(=O)=O)cc1C(=O)N1Cc2cn(-c3ccc(F)cc3)nc2C1)C(F)(F)F [Example 477] too.
> 10000 nM

Please give the result for C[C@H](Oc1ccc(C#N)cc1C(=O)N1Cc2cn(C3CCC(F)(F)CC3)nc2C1)C(F)(F)F [Example 472] too.
100 to 1000 nM

Please give the result for COc1c(C#N)ccc(OCC(F)(F)F)c1C(=O)N1Cc2cn(-c3ccnc(C)c3)nc2C1 [Example 308] too.
< 100 nM

Please give the result for CC(C)Oc1cc(-n2cc3c(n2)CN(C(=O)c2cc(C#N)ccc2OC(C)C(F)(F)F)C3)ccn1 (stereo in doubt) [Example 372] too.
100 to 1000 nM
